Every entry's value here was drawn from ChEMBL document CHEMBL3259605.

# measurement.description: Oral bioavailability in rat at 2 mg/kg
# Type: ADME, organism-based
# measurement.parameters: in vivo
endpoint.label: bioavailability (%)
Please state the figure in %; there is no need to write the unit.

Record excerpt, results attached:
structure.notation | endpoint.label | measurement
COc1cc(-c2ccc(COc3cc4c(cn3)CC[C@]43C[C@H]3C(=O)O)cc2[C@@H]2CCCC2(C)C)c(F)cn1 | bioavailability | 58
COc1cc(-c2ccc(COc3cccc([C@@H](CC(=O)O)C4CC4)c3)cc2[C@@H]2CCCC2(C)C)c(F)cn1 | bioavailability | 34

--- query ---
Ask: Note down bioavailability recorded for COc1cc(-c2ccc(COc3cc([C@@H](CC(=O)O)C4CC4)ccn3)cc2[C@@H]2CCCC2(C)C)c(F)cn1
Result: 37
